Some compounds, each annotated with its measured pIC50.
System: BeWo
Assay: Cytotoxicity against human Bewo cells assessed as cell growth inhibition after 72 hrs by MTT assay
Format: functional, cell-based
Expect pIC50 as a plain number equal to -log10 of the molar concentration.

- compound: "CCCNc1nnc2nncn2n1"
  pIC50: 4.84
- compound: "c1nnc2nnc(N3CCCC3)nn12"
  pIC50: 5.37
- compound: "O=C(C1CCCCC1)N1CCN(c2nnc3nncn3n2)CC1"
  pIC50: 5.72
- compound: "c1nnc2nnc(N3CCOCC3)nn12"
  pIC50: 5.89

// fetch pIC50 given entry "c1nnc2nnc(NC3CCCCC3)nn12"
5.58

// fetch pIC50 given entry "CC(C)(C)C(=O)N1CCN(c2nnc3nncn3n2)CC1"
5.62

// fetch pIC50 given entry "O=C(Cc1ccccc1)N1CCN(c2nnc3nncn3n2)CC1"
5.56

// fetch pIC50 given entry "CCC(=O)N1CCN(c2nnc3nncn3n2)CC1"
4.86

// fetch pIC50 given entry "CN(C)c1nnc2nncn2n1"
6.21

// fetch pIC50 given entry "O=C(c1ccccc1)N1CCN(c2nnc3nncn3n2)CC1"
5.23

// fetch pIC50 given entry CC(Nc1nnc2nncn2n1)C(=O)O (stereo unspecified)
4.08

// fetch pIC50 given entry "CC(C)COC(=O)N1CCN(c2nnc3nncn3n2)CC1"
4.88

// fetch pIC50 given entry "c1nnc2nnc(NC3CCCC3)nn12"
4.46

// fetch pIC50 given entry "c1ccc(CCNc2nnc3nncn3n2)cc1"
5.60

// fetch pIC50 given entry "O=C(c1ccc(Cl)cc1)N1CCN(c2nnc3nncn3n2)CC1"
5.12

// fetch pIC50 given entry "CC(C)C(=O)N1CCN(c2nnc3nncn3n2)CC1"
5.96

====

Test system: MCF7
Experiment: Cytotoxicity against human MCF7 cells assessed as cell growth inhibition after 72 hrs by MTT assay
Assay type: functional, cell-based
Conditions: MCF7, 72 h
Doc: threshold 10 µM (exclusive). Items with IC50 beneath it return True; others return False.

Consider the following illustrative entries.
- compound-structure-string: "O=C(c1ccc(Cl)cc1)N1CCN(c2nnc3nncn3n2)CC1"
  qualitative-label: "False"
- compound-structure-string: "CN(C)c1nnc2nncn2n1"
  qualitative-label: "True"
- compound-structure-string: "CC(=O)N1CCN(c2nnc3nncn3n2)CC1"
  qualitative-label: "False"
- compound-structure-string: "O=C(c1ccccc1)N1CCN(c2nnc3nncn3n2)CC1"
  qualitative-label: "True"
- compound-structure-string: "OCCNc1nnc2nncn2n1"
  qualitative-label: "False"

Please turn your attention to the following entry.
Could you please tell me whether IC50 recorded for "CCCCNc1nnc2nncn2n1" is less than 10 µM?
False
